- assay.explanation: qHTS assay to identify small molecule agonists of the hypoxia (HIF-1) signaling pathway - cell viability counter screen (AID 1224844); note: % is set by controls: 0 for no effect and ±100 for the full control effect; nearly all actives have a fitted effect of over 50% in size
- applied.conditions: HRE-bla ME-180 viability, CellTiter-Glo luminescence, 17 h; series mostly up to 76.8 µM
Results filed as inconclusive are left out. Active and inactive are the calls of the source. Calls come from the whole dose curve.
measured.attribute: activity change, negative = cytotoxicity

>  <smiles.code>
CCCCCCCCCCCCCCCCCO

>  <result>
4.42% [at 15.8 µM] (inactive)

$$$$
>  <smiles.code>
C=C/C=C/C=C/CCCCC

>  <result>
-12% [at 15.8 µM] (inactive)

$$$$
>  <smiles.code>
O=S(=O)(O)c1cc(S(=O)(=O)O)c2ccc3c(S(=O)(=O)O)cc(S(=O)(=O)O)c4ccc1c2c43

>  <result>
1.23% [at 15.8 µM] (inactive)

$$$$

Task: Can you look up the measured activity change, negative = cytotoxicity of COc1cc(C(C)C)c2c(c1)S(=O)(=O)N(COc1cc(=O)n3cccc(OCCN4CCCCC4)c3n1)C2=O for me?
Output: -17% [at 15.8 µM] (inactive)

* * *

- assay.explanation: qHTS assay to identify small molecule antagonists of the sonic hedgehog signaling (Shh) pathway (AID 1259369); note: nearly all actives have a fitted effect of over 45% in size
- applied.conditions: NIH/3T3 Gli1-Luc reporter, Shh antagonist, luminescence 24 h; series mostly up to 92.4 µM
Records with an inconclusive call do not appear. Calls of active or inactive are those of the source. The call rests on the fitted dose curve.
Outcomes you can answer with include only these: active, inactive

>  <molecule>
CCCCCCOc1ccc(O)cc1

>  <group.label>
inactive

$$$$
>  <molecule>
O=CC1CC1

>  <group.label>
inactive

$$$$
>  <molecule>
Nc1ccc2cc3ccc(N)cc3nc2c1

>  <group.label>
inactive

$$$$
>  <molecule>
CC(CN(C)C)CN1c2ccccc2CCc2ccccc21 (stereo not given)

>  <group.label>
active

$$$$
>  <molecule>
CS(C)(=O)=O

>  <group.label>
inactive

$$$$

Task: Kindly provide the recorded test outcome for the following molecule: CCCC(C)CCC(C)=O (stereo not given)
Output: inactive

Task: Kindly provide the recorded test outcome for the following molecule: CCOC(=O)CN
Output: inactive

Task: Kindly provide the recorded test outcome for the following molecule: C#CC(O)CCC (stereo not given)
Output: inactive

Task: Kindly provide the recorded test outcome for the following molecule: CC(=O)C=O
Output: inactive

Task: Kindly provide the recorded test outcome for the following molecule: O=C(Nc1ccc(Cl)c(Cl)c1)c1cc(Cl)cc(Cl)c1O
Output: active

Task: Kindly provide the recorded test outcome for the following molecule: O=C(Oc1ccccc1)c1cccc(C(=O)Oc2ccccc2)c1
Output: inactive

Task: Kindly provide the recorded test outcome for the following molecule: CC(=O)Oc1ccc(C2(c3ccc(OC(C)=O)cc3)Oc3ccccc3NC2=O)cc1
Output: active

Task: Kindly provide the recorded test outcome for the following molecule: SCCCCCCCCS
Output: inactive

Task: Kindly provide the recorded test outcome for the following molecule: CC1(C)C(=O)N(Br)C(=O)N1Br
Output: inactive

* * *

- assay.explanation: qHTS assay to identify small molecule agonists of H2AX - cell viability counter screen (AID 1224847); note: nearly all actives have a fitted effect of over 30% in size
- applied.conditions: CHO-K1 viability, CellTiter-Glo luminescence, 3 h; series mostly up to 154 µM
Results filed as inconclusive are left out. The source made the active and inactive calls. Calls come from the whole dose curve.
Outcomes you can answer with include only these: 1 for active, -1 for inactive

>  <molecule>
CCN(CC)c1ccc(N)cc1

>  <group.label>
1

$$$$

Task: Kindly provide the recorded test outcome for the following molecule: Oc1c(Br)cc(Br)c2cccnc12
Output: -1

Task: Kindly provide the recorded test outcome for the following molecule: CCCCCCCCCCOCC(O)CN (stereo not drawn)
Output: 1

Task: Kindly provide the recorded test outcome for the following molecule: C=CC(=O)OCCN(CC)CC
Output: -1

Task: Kindly provide the recorded test outcome for the following molecule: CCCCCCCCCCCCCCNCCO
Output: 1

Task: Kindly provide the recorded test outcome for the following molecule: CCCCCCCC(=O)OCC
Output: -1
